Entries and their measured z-score follow.
assay: S6 kinase pathway phospho-S6 level changes – cell-based, A549, cytoblot, luminescence, serum-stimulated, primary screen (AID 1158); conditions: 5 h, higher = more signal;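 also: serum-stimulated A549 lung adenocarcinoma cells; signal is phosphorylated S6 detected by cytoblot immunostaining with HRP secondary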
Answer with a number only.

Sample records with z-score:
Complete the entry with z-score for COC(=O)[C@@]1(Cc2ccccc2)[C@H]2c3cc(C(=O)N4CCCC4)n(CCO)c3C[C@H]2CN1C(=O)c1ccccc1
1.33

Look up and report measured z-score for this entry: COC(=O)[C@@]1(Cc2ccccc2)[C@H]2c3cc(C(=O)N(C)C)n(Cc4ccc(O)c(OC)c4)c3C[C@H]2CN1C(=O)c1ccccc1
1.67

Answer with reported z-score of C=CCOC(=O)[C@@H]1[C@H]2C(=O)O[C@H](c3ccccc3)[C@H](c3ccccc3)N2[C@H](c2ccc(OCCOC(=O)[C@@H]3C[C@@H]4C(=O)N5CCC[C@H]5C(=O)N4[C@@H]3c3cccc(OCCO)c3)cc2)[C@@]12C(=O)Nc1ccc(I)cc12
0.198

Next:
For the compound [N-]=[N+]=NCc1ccccc1C[C@]1(C(=O)NCCN2CCOCC2)COC(c2ccc(OCCCO)cc2)=N1 , report z-score.
0.132

Complete the entry with z-score for COc1ccccc1CN1C(=O)c2ccccc2[C@@]2(Cc3ccccc3N(C3CC3)C2=O)[C@@H]1c1ccc(CO)cc1
-0.243

For CC(C)(C)OC(=O)CC[C@]1(C(=O)N2CCCCC2)N=C(c2ccc(OCCCO)cc2)O[C@H]1c1ccccc1CN=[N+]=[N-] , write its z-score.
1.89

Determine its reported z-score: COc1ccc([Si](C)(C)[C@H]2[C@H](CCO)O[C@@]3(C(=O)N(Cc4cccc(N5CCOC5=O)c4)c4ccccc43)[C@@H]2C)cc1
0.469

Source listed as PubChem BioAssay.
